Values from PubChem BioAssay (NCI)

system: SW-620 colon; assay: NCI-60 one-dose screen, 48 h; conditions: 10 µM unless noted
About 83,000 compounds went through this panel and 20% of them were active in at least one assay; those are over-represented in the sample as a whole. Active and inactive are the calls of the source. The calls were made as follows: active = growth percent below 10; inactive = the rest.
Lab note: assign the record to one of active, inactive

COc1ccc(/C=N\N2CCOCC2)cc1OC1CCCC1    inactive
CCN(CC)c1ccc2c(c1)OS(=O)(=O)N=C2    inactive
COC(=O)/C=C1/CCC2C3CCC4=CC(=O)C(Br)CC4(C)C3C(=O)CC12C (stereo not given)    inactive
O=C(c1ccc2ncc(-c3nc(NC4CC4)ncc3F)n2c1)N1CCOCC1    inactive
Cc1c(C)n(CC(O)CNC2CCCCC2C)c2ccccc12 (stereo not given)    active

Inquiry: Name the outcome recorded for `N#Cc1c(-c2cccc(F)c2)cc(-c2ccc(Br)s2)[nH]c1=O` in the assay.
Reply text: inactive

Inquiry: Recorded test call requested for `Cc1nc2cc(Nc3nc(NCCN)nc(Nc4ccc(F)cc4)n3)ccc2n1Cc1ccccc1`
Reply text: inactive

Inquiry: Called result for `COc1ccc(-n2c(SCc3cc(OC)c(OC)c(OC)c3)nc3ccc(C)cc3c2=O)c(OC)c1`
Reply text: inactive

Inquiry: # lookup: test call for O=C1CC(c2ccsc2)c2snc(-c3ccc(Cl)cc3)c2N1 (stereo not given)
Reply text: inactive

Inquiry: Record request — test call for `c1ccc(-c2n(Cc3ccc4ccccc4c3)c3ccccc3[n+]2Cc2ccc3ccccc3c2)cc1`
Reply text: active

---

growth by entry:
system: K-562 leukemia; assay: NCI-60 one-dose screen, 48 h (100 = growth as untreated, 0 = no growth, -100 = all killed); details: 10 µM unless noted
About 83,000 compounds went through this panel and 20% of them were active in at least one assay; those are over-represented in the sample as a whole. Active and inactive are the calls of the source. Rule for the calls: active = growth percent below 10; inactive = the rest.

Examples with answers:
CCOC(=O)c1c(Cl)c2c(n1Cc1cc(OC)cc(OC)c1)-c1oncc1CCC2    9.73% (active)
CCC(C)[C@H]1O[C@]2(CC[C@@H]1C)C[C@@H]1C[C@@H](C/C=C(\C)[C@@H](OC3C[C@H](OC)C(O[C@H]4C[C@H](OC)[C@@H](O)[C@H](C)O4)[C@H](C)O3)[C@@H](C)/C=C/C=C3\CO[C@@H]4[C@H](O)C(C)=C[C@@H](C(=O)O1)[C@]34O)O2 (stereo partly drawn)    14.1% (inactive)

Now for another entry.
Summary: C=C[C@H]1C[C@@H]2C[C@@H]3[C@H]4C/C=C\C(=O)NCCCC5NC(=O)C(=C(O)/C=C/[C@@H]4CC(=O)[C@H]3[C@@H]2[C@H]1C)C5=O (stereo partly drawn) , K-562 leukemia, growth = -58.1% (active)

---

system: OVCAR-5 ovarian; test: NCI-60 one-dose screen, 48 h (100 = growth as untreated, 0 = no growth, -100 = all killed); conditions: 10 µM unless noted
Compounds without any hit were thinned out: in the full panel of roughly 83,000, 20% have a hit. Activity calls are given as the source filed them. Rule for the calls: active = growth percent below 10; inactive = the rest.
# reported growth; entries follow

Answered examples (4):
CCOC(=O)c1[nH]c2cc(Cl)ccc2c1[C@@H](C(=O)NC(C)(C)C)N(CC)C(=O)CCCCC#Cc1cccc2c1CN(C1CCC(=O)NC1=O)C2=O (stereo not given in full)    39.6% (inactive)
FC(F)(F)c1ccc2c(c1)n1cnnc1c1nncn21    110% (inactive)
Cc1nc(-c2ccccc2)cc2c(O)c(C(=O)N/N=C/Cc3ccccc3)[nH]c(=O)c12    101% (inactive)
O=C(Nc1ccc(Cl)c(Cl)c1)NC(CO)(CO)CO    94.7% (inactive)

Record summary for `CCN(C(=O)c1ccc2c3c(cccc13)C=C2)c1ccccc1` : reported growth = 90.5% (inactive)
